Taken from patent US5039665A.

- Protocol Text: acute lethality in dogs
- Condition Details: dog, in vivo; administered 500 mg/min in dogs; approximately
- From the text: From an energetic point of view the advantage of using FDP as the initial substrate is that the net yield of the anaerobic metabolism of one mole of glucose is 2 ATP, while if one mole of FDP is metabolized in the same conditions it will produce 4 ATP because there is no phosphorylation of glucose and fructose-6-phosphate, reactions which require utilization of ATP. […]

{"Compound": "O=C(COP(=O)(O)O)[C@@H](O)[C@H](O)[C@H](O)COP(=O)(O)O [FDP, fructose-1,6-diphosphate]", "LD50": "5800 to 6000 mg/kg"}
